ratio of amounts bound (vs GLS3000) values for the binders below.
# Target Entity: CD3ε homodimer protein (human, UniProt P07766 23-126, limits assumed)
# Sequence (P07766 23-126 limits assumed): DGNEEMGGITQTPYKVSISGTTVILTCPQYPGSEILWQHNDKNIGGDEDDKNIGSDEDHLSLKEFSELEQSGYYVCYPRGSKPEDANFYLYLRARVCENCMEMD
# Test Name: SPR, immobilized CD3ε homodimer;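 also: biacore T200 surface plasmon resonance at 25 °C, antibody variants flowed as analytes over amine-coupled CD3ε homodimer on a CM4 chip, variant binding amount divided by that of GLS3000 antibody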
Endpoint Name: ratio of amounts bound (vs GLS3000)

Binder: GLS3000 R54G (antibody, name in Kabat numbering, V domains shown, one-arm format as m2) VH: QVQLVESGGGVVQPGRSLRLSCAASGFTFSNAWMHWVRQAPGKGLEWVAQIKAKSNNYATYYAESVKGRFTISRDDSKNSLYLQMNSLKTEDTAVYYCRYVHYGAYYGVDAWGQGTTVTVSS VL: DIVMTQSPLSLPVTPGEPASISCRSSQSLVHSNRNTYLHWYQQKPGQAPRLLIYKVSNGFSGVPDRFSGSGSGTDFTLKISRVEAEDVGVYYCGQGTQVPYTFGQGTKLEIK
Endpoint Name: ratio of amounts bound (vs GLS3000)
Numeric Value: 0.67
//
Binder: GLS3000 H34Y (antibody, name in Kabat numbering, V domains shown, one-arm format as m2) VH: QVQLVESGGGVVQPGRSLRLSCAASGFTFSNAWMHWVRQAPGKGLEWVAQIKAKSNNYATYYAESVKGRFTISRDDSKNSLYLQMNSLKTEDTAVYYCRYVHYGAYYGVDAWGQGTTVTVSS VL: DIVMTQSPLSLPVTPGEPASISCRSSQSLVHSNRNTYLYWYQQKPGQAPRLLIYKVSNRFSGVPDRFSGSGSGTDFTLKISRVEAEDVGVYYCGQGTQVPYTFGQGTKLEIK
Endpoint Name: ratio of amounts bound (vs GLS3000)
Numeric Value: 0.59
//
Binder: GLS3000 T92L (antibody, name in Kabat numbering, V domains shown, one-arm format as m2) VH: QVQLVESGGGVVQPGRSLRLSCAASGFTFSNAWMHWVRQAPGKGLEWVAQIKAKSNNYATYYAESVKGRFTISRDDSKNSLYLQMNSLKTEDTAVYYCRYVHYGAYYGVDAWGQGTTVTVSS VL: DIVMTQSPLSLPVTPGEPASISCRSSQSLVHSNRNTYLHWYQQKPGQAPRLLIYKVSNRFSGVPDRFSGSGSGTDFTLKISRVEAEDVGVYYCGQGLQVPYTFGQGTKLEIK
Endpoint Name: ratio of amounts bound (vs GLS3000)
Numeric Value: 0.42
//
Binder: GLS3000 S27eP (antibody, name in Kabat numbering, V domains shown, one-arm format as m2) VH: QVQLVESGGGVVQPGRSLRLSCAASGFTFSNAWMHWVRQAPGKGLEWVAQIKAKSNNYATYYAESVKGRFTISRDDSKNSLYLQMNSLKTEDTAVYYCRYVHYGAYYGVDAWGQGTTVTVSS VL: DIVMTQSPLSLPVTPGEPASISCRSSQSLVHPNRNTYLHWYQQKPGQAPRLLIYKVSNRFSGVPDRFSGSGSGTDFTLKISRVEAEDVGVYYCGQGTQVPYTFGQGTKLEIK
Endpoint Name: ratio of amounts bound (vs GLS3000)
Numeric Value: 1.26
//
Binder: GLS3000 V94I (antibody, name in Kabat numbering, V domains shown, one-arm format as m2) VH: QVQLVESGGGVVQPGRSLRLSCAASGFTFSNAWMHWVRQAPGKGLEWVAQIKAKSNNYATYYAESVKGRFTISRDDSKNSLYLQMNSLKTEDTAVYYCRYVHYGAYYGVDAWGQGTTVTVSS VL: DIVMTQSPLSLPVTPGEPASISCRSSQSLVHSNRNTYLHWYQQKPGQAPRLLIYKVSNRFSGVPDRFSGSGSGTDFTLKISRVEAEDVGVYYCGQGTQIPYTFGQGTKLEIK
Endpoint Name: ratio of amounts bound (vs GLS3000)
Numeric Value: 0.66
//
Binder: GLS3000 S27eD (antibody, name in Kabat numbering, V domains shown, one-arm format as m2) VH: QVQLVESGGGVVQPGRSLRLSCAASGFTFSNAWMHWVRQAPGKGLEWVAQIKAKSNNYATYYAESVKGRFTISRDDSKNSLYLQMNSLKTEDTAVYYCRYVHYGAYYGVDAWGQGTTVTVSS VL: DIVMTQSPLSLPVTPGEPASISCRSSQSLVHDNRNTYLHWYQQKPGQAPRLLIYKVSNRFSGVPDRFSGSGSGTDFTLKISRVEAEDVGVYYCGQGTQVPYTFGQGTKLEIK
Endpoint Name: ratio of amounts bound (vs GLS3000)
Numeric Value: 0.69
//
Binder: GLS3000 H27dA (antibody, name in Kabat numbering, V domains shown, one-arm format as m2) VH: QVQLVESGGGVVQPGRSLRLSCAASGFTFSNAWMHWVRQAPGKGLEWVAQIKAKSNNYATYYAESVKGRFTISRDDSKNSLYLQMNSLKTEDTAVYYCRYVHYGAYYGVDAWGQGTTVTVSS VL: DIVMTQSPLSLPVTPGEPASISCRSSQSLVASNRNTYLHWYQQKPGQAPRLLIYKVSNRFSGVPDRFSGSGSGTDFTLKISRVEAEDVGVYYCGQGTQVPYTFGQGTKLEIK
Endpoint Name: ratio of amounts bound (vs GLS3000)
Numeric Value: 0.48
//
Binder: GLS3000 H34R (antibody, name in Kabat numbering, V domains shown, one-arm format as m2) VH: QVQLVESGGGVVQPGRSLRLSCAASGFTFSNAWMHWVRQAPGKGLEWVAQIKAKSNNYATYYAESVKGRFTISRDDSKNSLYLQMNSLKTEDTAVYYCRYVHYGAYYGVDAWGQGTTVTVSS VL: DIVMTQSPLSLPVTPGEPASISCRSSQSLVHSNRNTYLRWYQQKPGQAPRLLIYKVSNRFSGVPDRFSGSGSGTDFTLKISRVEAEDVGVYYCGQGTQVPYTFGQGTKLEIK
Endpoint Name: ratio of amounts bound (vs GLS3000)
Numeric Value: 0.2
//
Binder: GLS3000 K50G (antibody, name in Kabat numbering, V domains shown, one-arm format as m2) VH: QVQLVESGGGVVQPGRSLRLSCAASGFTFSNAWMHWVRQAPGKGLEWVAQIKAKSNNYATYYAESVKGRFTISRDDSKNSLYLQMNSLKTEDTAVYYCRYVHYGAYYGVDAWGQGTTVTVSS VL: DIVMTQSPLSLPVTPGEPASISCRSSQSLVHSNRNTYLHWYQQKPGQAPRLLIYGVSNRFSGVPDRFSGSGSGTDFTLKISRVEAEDVGVYYCGQGTQVPYTFGQGTKLEIK
Endpoint Name: ratio of amounts bound (vs GLS3000)
Numeric Value: 0.16
//
Binder: GLS3000 R24S (antibody, name in Kabat numbering, V domains shown, one-arm format as m2) VH: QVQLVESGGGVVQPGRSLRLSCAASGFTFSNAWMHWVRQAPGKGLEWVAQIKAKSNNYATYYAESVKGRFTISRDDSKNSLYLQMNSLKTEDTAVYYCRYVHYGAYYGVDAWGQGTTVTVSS VL: DIVMTQSPLSLPVTPGEPASISCSSSQSLVHSNRNTYLHWYQQKPGQAPRLLIYKVSNRFSGVPDRFSGSGSGTDFTLKISRVEAEDVGVYYCGQGTQVPYTFGQGTKLEIK
Endpoint Name: ratio of amounts bound (vs GLS3000)
Numeric Value: 0.89
